test: binders of probe aFST on microarray, primary screen, stem cell growth factor project, biochemical, small-molecule microarray, fluorescence 635/667 (AID 1086); settings: higher = more signal;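 further: score merges 667 nm fluorescence with signal-to-noise of each printed compound spot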
Please note: condition met applies when composite z-score is -0.3 or greater, and condition not met applies otherwise.

[
  {
    "Molecule": "C[N+](C)(C)CCCC[C@@H]1NC(=O)[C@@H]2C[C@H](C(=O)NCCCCCNC(=O)CS)[C@H](c3ccc(O)cc3)N2C1=O",
    "Class label": "condition met"
  },
  {
    "Molecule": "CC(C)(C)OC(=O)CC[C@@]12N=C(c3ccc(OCCCO)cc3)O[C@@H]1c1ccccc1CN(Cc1ccccc1)C2=O",
    "Class label": "condition met"
  },
  {
    "Molecule": "C=C(COC)/C(=C/C[C@H](OC(C)=O)c1cccc(OCCO)c1)c1cc(C(=O)OC)ccc1OC",
    "Class label": "condition met"
  },
  {
    "Molecule": "NC(=O)NCC#Cc1ccc2c(c1)[C@]1(C(=O)N2)[C@H](c2ccc(OCCO)cc2)N2[C@H](c3ccccc3)[C@H](c3ccccc3)OC(=O)[C@H]2[C@@H]1C(=O)Nc1nc2ccccc2s1",
    "Class label": "condition met"
  },
  {
    "Molecule": "COC(=O)[C@@]1(CCC(=O)OC(C)(C)C)COC(c2ccc(OCCCO)cc2)=N1",
    "Class label": "condition not met"
  },
  {
    "Molecule": "Cc1ccc(N2C(=O)c3ccccc3[C@](C)(C(=O)NCC(F)(F)F)[C@@H]2c2ccc(CO)cc2)nc1",
    "Class label": "condition not met"
  },
  {
    "Molecule": "CN1C=C(C(=O)OCCS(C)(=O)=O)C(C(=O)OCCS(C)(=O)=O)=CC(CCCO)=CC1c1cccs1 (configuration not stated)",
    "Class label": "condition met"
  }
]

###

tested on: XIP peptide (Xip251-270); experiment: small-molecule binders of XIP peptide, primary screen, biochemical, small-molecule microarray, fluorescence 635/667 nm, 0.5 µg/mL protein (AID 1183); details: small-molecule microarray binding, fluorescence 635 nm; higher = more signal
Below, each entry is listed with its recorded composite z-score.

[
  {
    "Compound": "C=C(C(=O)CC[C@@H](OC(C)=O)c1ccccc1OCCO)C(C)C",
    "composite z-score": 0.565
  },
  {
    "Compound": "C=C(/C(=C/C[C@H](OC(=O)c1ccncc1)c1cccc(OCCO)c1)c1cc(C(=O)OC)ccc1OC)C(C)C",
    "composite z-score": 0.256
  },
  {
    "Compound": "COCCOC(=O)N1C(=O)[C@@]2(c3cc(C#CC4(O)CCCCCC4)ccc31)[C@H](c1ccc(O)cc1)N1[C@H](c3ccccc3)[C@H](c3ccccc3)OC(=O)[C@H]1[C@@H]2C(N)=O",
    "composite z-score": 0.821
  },
  {
    "Compound": "COc1ccc(CCNC(=O)[C@@]2(Sc3ccc(C)cc3)CC(=O)N(Cc3ccccc3)[C@@H]2c2ccc(CO)cc2I)cc1",
    "composite z-score": -0.0462
  },
  {
    "Compound": "C/C=C/[C@@H](CCn1cc(CCO[Si](C(C)C)(C(C)C)C(C)C)nn1)[Si](C)(C)c1ccc(OC)cc1",
    "composite z-score": -1.48
  },
  {
    "Compound": "CC(C)[Si](C#C[Si](C(C)C)(C(C)C)C(C)C)(O[C@H](C)c1cn([C@H](C)c2ccccc2)nn1)C(C)C",
    "composite z-score": 0.193
  },
  {
    "Compound": "C=CCC(OC(C)=O)[C@@H]1[C@@H](N(Cc2cc3ccccc3o2)C(=O)c2ccc(-c3ccccc3)cc2)c2cc(OCCCO)ccc2N1C(=O)c1ccc(-c2ccccc2)cc1 (some centres not stated)",
    "composite z-score": -0.599
  }
]
